Target: AKT (Homo sapiens)
Construct: Kinases are expressed as either kinase domains or full length constructs; made in house
Sequence (Q9Y243 whole entry, the tested form may be a part): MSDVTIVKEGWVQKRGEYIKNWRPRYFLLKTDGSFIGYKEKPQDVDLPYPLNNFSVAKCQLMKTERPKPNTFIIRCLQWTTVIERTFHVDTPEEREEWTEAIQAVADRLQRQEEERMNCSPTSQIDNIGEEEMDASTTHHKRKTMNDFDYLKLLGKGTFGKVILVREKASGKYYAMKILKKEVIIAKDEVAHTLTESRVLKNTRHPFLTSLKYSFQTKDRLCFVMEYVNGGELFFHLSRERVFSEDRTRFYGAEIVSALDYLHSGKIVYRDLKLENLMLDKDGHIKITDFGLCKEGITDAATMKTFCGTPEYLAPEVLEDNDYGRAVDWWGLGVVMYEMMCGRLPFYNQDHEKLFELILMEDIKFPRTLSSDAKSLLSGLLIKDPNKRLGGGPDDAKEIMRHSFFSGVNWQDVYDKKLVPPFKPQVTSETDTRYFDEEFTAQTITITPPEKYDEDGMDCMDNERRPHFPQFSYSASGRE
Test: Kinase inhibition assay (33P transfer), AKT
Assay type: biochemical
Conditions: AKT3-1, Table 2, class symbols A-E
QUANTITY_KIND: IC50

Field request: IC50 | item: COc1cc(Nc2ncnc(-c3cccnc3Nc3ccccc3)n2)cc(OC)c1OC [Compound 1092]
> 10.5 µM

* * *

Molecular target: Kdr (Homo sapiens, UniProt P35968)
Construct: Kinases are expressed as either kinase domains or full length constructs; made in house
Sequence (P35968 20-1356, species assumed): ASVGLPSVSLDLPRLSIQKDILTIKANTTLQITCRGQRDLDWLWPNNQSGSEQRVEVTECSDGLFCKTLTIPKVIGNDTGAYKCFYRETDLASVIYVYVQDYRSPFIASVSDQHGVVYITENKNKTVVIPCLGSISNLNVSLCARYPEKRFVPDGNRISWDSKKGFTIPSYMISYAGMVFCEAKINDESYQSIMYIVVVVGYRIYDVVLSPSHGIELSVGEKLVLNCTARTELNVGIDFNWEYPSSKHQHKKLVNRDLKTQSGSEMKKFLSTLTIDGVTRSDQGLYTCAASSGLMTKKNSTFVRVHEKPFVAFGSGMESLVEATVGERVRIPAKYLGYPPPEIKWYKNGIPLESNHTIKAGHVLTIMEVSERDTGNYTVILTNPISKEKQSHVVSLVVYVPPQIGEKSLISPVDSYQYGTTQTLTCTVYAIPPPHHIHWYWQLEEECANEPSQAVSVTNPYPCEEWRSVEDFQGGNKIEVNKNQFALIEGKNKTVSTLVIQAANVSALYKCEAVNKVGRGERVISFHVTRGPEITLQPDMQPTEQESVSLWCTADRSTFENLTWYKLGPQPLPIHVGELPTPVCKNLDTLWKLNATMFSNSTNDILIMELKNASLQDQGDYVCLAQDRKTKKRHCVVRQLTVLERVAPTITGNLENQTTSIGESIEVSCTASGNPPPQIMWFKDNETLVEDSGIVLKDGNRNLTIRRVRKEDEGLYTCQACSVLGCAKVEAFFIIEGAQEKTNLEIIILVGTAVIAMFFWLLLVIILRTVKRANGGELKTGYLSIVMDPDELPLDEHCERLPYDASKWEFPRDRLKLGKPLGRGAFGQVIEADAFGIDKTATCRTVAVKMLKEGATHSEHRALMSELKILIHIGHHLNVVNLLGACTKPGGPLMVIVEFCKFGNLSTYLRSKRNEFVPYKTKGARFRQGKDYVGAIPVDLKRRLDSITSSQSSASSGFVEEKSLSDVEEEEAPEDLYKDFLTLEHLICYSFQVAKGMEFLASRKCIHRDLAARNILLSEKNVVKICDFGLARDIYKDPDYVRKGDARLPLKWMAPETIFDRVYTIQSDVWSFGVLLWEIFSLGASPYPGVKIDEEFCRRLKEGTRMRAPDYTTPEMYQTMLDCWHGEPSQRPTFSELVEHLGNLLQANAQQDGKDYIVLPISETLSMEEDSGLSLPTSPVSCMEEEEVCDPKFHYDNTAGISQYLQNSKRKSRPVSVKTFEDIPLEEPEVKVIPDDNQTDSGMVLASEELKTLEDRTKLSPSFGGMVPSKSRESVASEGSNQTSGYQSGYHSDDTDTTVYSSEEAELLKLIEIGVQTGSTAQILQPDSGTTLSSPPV
Test: Kinase inhibition assay (33P transfer), Kdr
Format: biochemical
Details: read-out: KDR-1
pIC50: −log10 of the molar value.
QUANTITY_KIND: pIC50

Recorded pIC50, per entry:
CCN(CC)CCOc1cc(Nc2ncnc(Nc3cc(OC)c(OC)c(OC)c3)n2)ccc1OC
5.32 to 6.10
C=CCNc1ncccc1-c1ncnc(Nc2ccc(C(N)=O)cc2)n1
> 5.94
CN(c1cccc(Cl)c1)c1ncnc(Nc2ccccc2)n1
4.95 to 5.11

// lookup pIC50 for COc1cc(Nc2ncnc(-n3c(=O)[nH]c4ccccc43)n2)cc(OCCN2CCOCC2)c1OC
> 6.09

* * *

Provide the recorded pIC50 for the entries that follow.
Biological target: Itk (Homo sapiens, UniProt Q08881)
Construct: Kinases are expressed as either kinase domains or full length constructs; made in house
Sequence (Q08881 whole entry, species assumed, the tested form may be a part): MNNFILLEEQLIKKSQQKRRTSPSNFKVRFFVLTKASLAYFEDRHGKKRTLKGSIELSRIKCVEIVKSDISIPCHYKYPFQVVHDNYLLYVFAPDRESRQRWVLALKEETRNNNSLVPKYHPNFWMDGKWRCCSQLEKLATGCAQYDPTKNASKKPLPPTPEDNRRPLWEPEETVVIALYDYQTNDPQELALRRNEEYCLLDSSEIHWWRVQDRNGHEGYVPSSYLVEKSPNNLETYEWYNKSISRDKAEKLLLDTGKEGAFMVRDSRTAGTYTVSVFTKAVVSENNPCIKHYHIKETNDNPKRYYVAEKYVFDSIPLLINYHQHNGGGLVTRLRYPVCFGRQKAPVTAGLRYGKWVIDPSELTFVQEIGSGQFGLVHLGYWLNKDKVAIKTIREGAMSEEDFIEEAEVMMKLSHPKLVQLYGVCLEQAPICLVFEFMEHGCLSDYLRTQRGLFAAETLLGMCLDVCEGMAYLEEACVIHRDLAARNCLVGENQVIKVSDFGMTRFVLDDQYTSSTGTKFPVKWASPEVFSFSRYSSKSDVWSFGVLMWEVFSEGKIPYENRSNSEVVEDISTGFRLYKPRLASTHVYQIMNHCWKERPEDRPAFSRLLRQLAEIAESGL
Test: Kinase inhibition assay (33P transfer), Itk
Assay type: biochemical
Conditions: Table 3; read-out: Itk-1
pIC50: −log10 of the molar value.

Nc1ncnc(Nc2cccc(Nc3ncnc(N)n3)c2)n1 [Compound 1027]
< 4.82
COc1cc(Nc2ncnc(-n3c(NC(C)=O)nc4ccccc43)n2)cc(OC)c1OC [Compound 334]
5.26 to 6.04
COc1cc(Nc2ncnc(-n3c(N(C)C)nc4ccccc43)n2)cc(OC)c1OC [Compound 405]
< 4.97

For each listed entry, give its pIC50.
1. COc1cc(Nc2ncnc(Nc3cccc(C)c3)n2)cc(OC)c1OC [Compound 64]
2. Cc1cc(Br)ccc1Nc1ncnc(-n2cccc2)n1 [Compound 282]
3. CCOc1ccc(Nc2ncnc(Nc3ccc(C)c(O)c3)n2)cc1OCC [Compound 121]
4. COc1ccc(Nc2ncnc(N(CC(=O)OC(C)(C)C)c3ccc(Cl)cc3)n2)cc1OC [Compound 973]
5. COc1cc(Nc2ncnc(Nc3cccc(OCc4ccccc4)c3)n2)cc(OC)c1OC [Compound 73]
6. COc1cc(Nc2ncnc(-n3ccc4ccc(Cl)cc43)n2)cc(OC)c1OC [Compound 237]

["< 4.91", "< 4.87", "4.93 to 5.04", "< 5.02", "< 5.01", "< 4.96"]

* * *

Molecular target: Itk (Homo sapiens)
Construct: Kinases are expressed as either kinase domains or full length constructs; made in house
Assay: Kinase inhibition assay (33P transfer), Itk
Type: biochemical
Conditions: Table 3, class symbols; read-out: Itk-1
QUANTITY_KIND: IC50

COc1cc(Nc2ncnc(N(CCO)c3ccccc3)n2)cc(OC)c1OC [Compound 637]
> 11.3 µM
COc1cc(Nc2ncnc(NC(=O)Cc3ccccc3)n2)cc(OC)c1OC [Compound 679]
> 11.4 µM
COC(=O)c1ccc(-c2cc(Nc3ncnc(NCc4ccccc4F)n3)[nH]n2)cc1 [Compound 814]
> 10.7 µM

Batch request: IC50 for each of the following compounds.
1. COc1cc(Nc2ncnc(Nc3cc(-c4ccc(C(=O)N(C)C)cc4)n[nH]3)n2)cc(OC)c1OC [Compound 993]
2. FC(F)(F)Sc1cccc(Nc2ncnc(Nc3cc(-c4ccco4)[nH]n3)n2)c1 [Compound 827]
3. O=C(O)Cc1cccc(Nc2ncnc(Nc3ccc(Cl)cc3F)n2)c1 [Compound 968]
4. COC(=O)c1ccc(N(C)c2ncnc(Nc3ccc(OC)c(OC)c3)n2)cc1 [Compound 864]
5. COc1ccc(Nc2ncnc(N(C)c3ccc(Cl)cc3)n2)cc1OC [Compound 795]
6. COC(=O)c1ccc(-c2cc(Nc3ncnc(NCCN4CCNC4=O)n3)[nH]n2)cc1 [Compound 820]
7. Fc1ccc(CNc2ncccc2-c2ncnc(Nc3ccc(N4CCOCC4)cc3)n2)cc1 [Compound 1106]

1: 4.89 to 7.14 µM; 2: 0.954 to 5.72 µM; 3: > 12 µM; 4: > 11.4 µM; 5: > 12.1 µM; 6: 8.27 to 10.6 µM; 7: > 9.84 µM

FYI, the data here is from patent US7074789B2.
